System: MCF7 breast
Assay: NCI tumour cell line growth inhibition, 48 h
Measured Quantity: GI50

Lab note: CC(C)C[C@H](NC(=O)/C=C/Cn1ccc2ccccc2c1=O)B(O)O gave GI50 of 5330 nM

Entry under test: C[C@H](O)C(=O)N1CCC(CCn2c(Sc3cc4c(cc3Br)OCO4)nc3c(N)ncnc32)CC1 . Its GI50 was 368 nM

Field GI50 (entry CC/C=C\C[C@H]1C/C=C2/C(=O)C=C[C@@H]2C/C=C\CCCC(=O)O1 ) reads 395 nM

###

Tested on: UACC-62 melanoma
Assay: NCI tumour cell line growth inhibition, 48 h; in the data active = GI50 below about 0.43 µM; inactive = the rest
Choose the fitting class; nothing outside T for active, F for inactive is accepted.

Asked: Entry O=c1cc(NC2CCN(CCCc3ccccc3)CC2)c2cc(Cl)ccc2o1 : call = ?
Given back: F

Asked: Tell me the recorded outcome of this test for CCOc1cc(C(C)(C)C)ccc1C1=N[C@@](C)(c2ccc(Cl)cc2)[C@@](C)(c2ccc(Cl)cc2)N1C(=O)N1CCN(CCCS(C)(=O)=O)CC1 .
Given back: F

Asked: // param item: C[C@]12CC[C@@H]3c4cc(OCC(F)(F)F)c(O)cc4/C(=N/O)C[C@H]3[C@@H]1CC[C@@H]2O ; yields the recorded call
Given back: T

Asked: Test call for this molecule, please: O=c1c2ccccc2c(=O)c2c1[nH]c1c(-c3ccccc3)c(-c3ccccc3)c(=O)c12
Given back: F

Asked: Which outcome was assigned to COc1cccc2c(=O)c3c(sc12)c(N1CCNCC1)nc1ccccc13 in this test?
Given back: F

Asked: Given O=c1cccc(C#CC#CC2=CCCCC2)o1 , state the outcome it received in this test.
Given back: F

Asked: Entry CC(C)C[C@H](NC(=O)/C=C/Cn1ccc2ccccc2c1=O)B(O)O : call = ?
Given back: F

###

As shown below, each of these molecules has a reported TGI value.
Tested on: SK-MEL-2 melanoma
Assay: NCI tumour cell line growth inhibition, 48 h
Use µM as the unit, but write only the number.

molecule=C[C@]12CC[C@@H]3c4cc(OCC(F)(F)F)c(O)cc4/C(=N/O)C[C@H]3[C@@H]1CC[C@@H]2O value_units=µM measured_number=0.852
molecule=CC(=O)C(=CN1CCN(C(=O)c2ccco2)C1=S)C(C)=O value_units=µM measured_number=8.52
molecule=O=C1/C(=C/c2ccc(Cl)cc2)CSc2ccccc21 value_units=µM measured_number=41.8
molecule="COc1cc(OC)c(C2c3cc4c(cc3OC(N3CCCC3)C2C)OCO4)c(OC)c1 (stereo unspecified)" value_units=µM measured_number=57.7
molecule="O=C1CC2c3ccccc3CCC2c2ccccc21 (stereo unspecified)" value_units=µM measured_number=35.9
molecule=ClCc1cccc(Cn2cnc3nc(Cl)nc(Cl)c32)c1 value_units=µM measured_number=3.74
molecule=CCn1c(-c2ccc(OC(C)=O)cc2)c(C)c2cc(OC(C)=O)ccc21 value_units=µM measured_number=37.2
molecule=CC(C)NC(=O)OCCN=c1c2ccccc2ccc2ccccc12 value_units=µM measured_number=73.4

Record CC(C)(Cl)C(Br)CCC(=CCCl)CBr (mixture of isomers) , field TGI: 9.93

The measured TGI associated with O=C(NCO)NCOCn1c(=O)n(CO)c(=O)n(CO)c1=O reads 33.8

The molecule listed as O=S(=O)(Nc1cc(Sc2cccc3cccnc23)c(O)c2ccccc12)c1ccccc1 shows TGI equal to 13.4

Reported TGI of O=C(CCC1OCCO1)Nc1cc(NCc2ccccc2)ccc1OCc1ccccc1 : 49.7

###

Test system: PC-3 prostate
Experiment: NCI tumour cell line growth inhibition, 48 h
Recorded measurements of TGI, one per entry

Some compounds with known TGI results, for comparison:
compound=COc1ccc(/C=C/c2cc(OC)cc(=O)o2)cc1 measured_quantity=TGI result="> 100 µM"
compound=COC(=O)C1=C(C)NC(C)=C(C(=O)OC)C1c1nc2sccn2c1[N+](=O)[O-] measured_quantity=TGI result="> 100 µM"
compound=C=C1CN2CC(=C)CN(C1)CS(=O)(=O)N1CC(=C)CN(CC(=C)C1)S(=O)(=O)N1CC(=C)CN(CC(=C)C1)S(=O)(=O)C2 measured_quantity=TGI result="38.6 µM"

Lab note: measured TGI of C=C(Cl)C(C)(Cl)CCC(Br)C(C)(C)Cl (stereo not given) was > 100 µM

The recorded TGI for COc1cc2[nH]c(C(=O)c3cc(OC)c(OC)c(OC)c3)c(N)c2cc1C#CC1CC1 is > 100 µM

// field: TGI; key: COc1cc(/C=C/c2ccc(OC)c(OC)c2)cc(OC)c1 ; value = > 100 µM

// sample O=C(/C=C\c1ccc(NCc2ccc(C(=O)O)cc2)cc1)CCl , its TGI was 28.9 µM

Entry COc1ccc(NS(=O)(=O)c2ccc(NC(NC(=O)CC(C)C)(C(F)(F)F)C(F)(F)F)cc2)nn1 ; TGI = > 100 µM

Query Cn1c2ccccc2c(=NNc2cccc(C(=O)O)c2)c2ccccc21 yields TGI of 23.6 µM

Just so you know, measured TGI for C[N+]12CCCCC1C(CN1C(=O)Cc3c4ccccc4c(c4ccccc34)CC1=O)CCC2 (stereo not given) came out at > 100 µM

###

Tested on: IGROV1 ovarian
Assay: NCI tumour cell line growth inhibition, 48 h
Measured Quantity: TGI (µM)
Quick note: give the figure in µM, leave out the unit.

compound=Cn1c2ccccc2c(=NNc2cccc(C(=O)O)c2)c2ccccc21 measured_number=66.2
compound="N#CC1=C(N)N(c2ccccc2)C(c2ccccc2)C1(C#N)C#N (stereo not given)" measured_number=32

The value of TGI measured for the compound COc1ccc(C2COc3cc(O)c(O)cc3C2)cc1 (stereo not given) turned out to be 148

Note to self: TGI recorded for CC(C)(C)OC(=O)NCCCNC1(c2cc3ccccc3s2)CCCCC1 was 32.2

The reported value for CC/C=C\C[C@H]1C/C=C2/C(=O)C=C[C@@H]2C/C=C\CCCC(=O)O1 in terms of TGI is 4.28

TGI for CN(C)c1cc[c]([Sn]([c]2ccc(N(C)C)cc2)([c]2ccc(N(C)C)cc2)[c]2ccc(N(C)C)cc2)cc1 is 19.6

// sample Cc1ncc(CCCN(C)C)cc1Nc1ncc2c(n1)-c1ccc(C(F)(F)F)cc1NC(=S)C2 , its TGI was 1.35

###

Measured log10 of TGI of individual entries
System: MDA-MB-435
Test: NCI tumour cell line growth inhibition, 48 h
Hello, just confirming the data are log10 of TGI with units of µM.

compound="O=C1CSC(c2ccc(Cl)cc2Cl)N1c1ccc(F)cc1 (stereo not drawn)" measured_target=MDA-MB-435 measured_quantity="log10 of TGI" measured_number=1.63
compound="C1CCC([PH+](C2CCCCC2)C2CCCCC2[PH+](C2CCCCC2)C2CCCCC2)CC1.O=C(C1[CH-]CCCC1)C1CCCC[N-]1.[Au] (stereo not drawn)" measured_target=MDA-MB-435 measured_quantity="log10 of TGI" measured_number=-0.15
compound=CC1=C[C@H]2c3c(c(O)c(O)c4oc(-c5ccccc5)cc(=O)c34)[C@H](c3cc(O)c(O)c4oc(-c5ccccc5)cc(=O)c34)[C@H]2C(C)(C)C1 measured_target=MDA-MB-435 measured_quantity="log10 of TGI" measured_number=0.76
compound=COc1cccc(C#Cc2ccccc2C#CCCCCO)c1 measured_target=MDA-MB-435 measured_quantity="log10 of TGI" measured_number=0.91
compound=ClCc1cccc(Cn2cnc3nc(Cl)nc(Cl)c32)c1 measured_target=MDA-MB-435 measured_quantity="log10 of TGI" measured_number=0.50

Notebook: COc1ccc(CCN2COc3c([C@@H](C)CCC=C(C)C)ccc(C)c3C2)cc1OC , log10 of TGI read as 1.04

# compound CCOc1cc(C(C)(C)C)ccc1C1=N[C@@](C)(c2ccc(Cl)cc2)[C@@](C)(c2ccc(Cl)cc2)N1C(=O)N1CCN(CCCS(C)(=O)=O)CC1 ; its log10 of TGI = 1.29

###

Tested on: SW-620 colon
Experiment: NCI tumour cell line growth inhibition, 48 h; in the data active means GI50 below about 0.43 µM; inactive means the rest
Pick from active, inactive when you respond.

molecule=C[C@H](O)C(=O)N1CCC(CCn2c(Sc3cc4c(cc3Br)OCO4)nc3c(N)ncnc32)CC1 cat=inactive
molecule=Br[C](Br)(Br)[Hg][c]1ccccc1 cat=inactive
molecule=C[C@]12CC[C@@H]3c4cc(OCC(F)(F)F)c(O)cc4/C(=N/O)C[C@H]3[C@@H]1CC[C@@H]2O cat=active

API: the following record is the query input.
Asked: Could you kindly confirm the outcome this assay logged for O=c1c2ccccc2c(=O)c2c1[nH]c1c(-c3ccccc3)c(-c3ccccc3)c(=O)c12 ?
Given back: inactive

###

Tested on: HL-60(TB) leukemia
Test: NCI tumour cell line growth inhibition, 48 h
# label = yes if TGI >= 10 µM else no

Field: example entries. Status: answers known.
molecule=O=C1C(=Cc2ccccc2O)N=C(c2ccccc2)N1n1c(-c2ccccc2)nc2ccccc2c1=O cat=yes
molecule="CC(C)(Cl)C(Br)CCC(=CCCl)CBr (mixture of isomers)" cat=no
molecule=C[C@]12CC[C@@H]3c4cc(OCC(F)(F)F)c(O)cc4/C(=N/O)C[C@H]3[C@@H]1CC[C@@H]2O cat=yes
molecule=COc1nc2nccnc2c(=O)n1C cat=yes
molecule=CCCCCCCCCCCCCCCCCCOc1ccccc1CC(=O)OCC[N+]1(C)CCCC1 cat=no
molecule="O=C1CSC(c2ccc(Cl)cc2Cl)N1c1ccc(F)cc1 (stereo unspecified)" cat=yes

Asked: Quick check, TGI >= 10 µM? NC(=O)NCc1c(C(N)=O)ncn1Cc1ccccc1
Given back: yes

Asked: // inclusive: TGI at least 10 µM? input: O=c1cccc(C#CC#CC2=CCCCC2)o1
Given back: yes

Asked: In plain terms: is recorded TGI at least 10 µM for O=C1Nc2ccc(F)cc2/C1=C/c1ccc[nH]1 ?
Given back: yes

Asked: Entry O=S(=O)(Nc1cc(Sc2cccc3cccnc23)c(O)c2ccccc12)c1ccccc1 : is its TGI no less than 10 µM?
Given back: no
